# TARGET_OR_TEST_SYSTEM: SGLT1 (Homo sapiens)
# Construct: endogenous in cells; host or cells: differentiated Caco-2 cell monolayers (ATCC)
# TEST_METHOD_NOTES: Glucose transport inhibitor cell screening assay, 5 mM D-glucose for 15 minutes (SGLT1 inhibition)
# Assay type: cell-based
# COND: Caco-2 cell model, 5 mM D-glucose
QUANTITY_KIND: SGLT1 inhibitory activity (in words)

compound="O=c1c(O)c(-c2ccc(O[C@@H]3O[C@H](CO)[C@@H](O)[C@H](O)[C@H]3O)c(O)c2)oc2cc(O)cc(O)c12 [Quercetin-4-glucoside, reference compound]" quantity_kind="SGLT1 inhibitory activity (in words)" measured_result="inhibition of SGLT1"
compound="O=c1c(O)c(-c2ccc(O)cc2)oc2cc(O[C@@H]3O[C@H](CO)[C@@H](O)[C@H](O)[C@H]3O)cc(O)c12 [Kaempferol 7-O-glucoside]" quantity_kind="SGLT1 inhibitory activity (in words)" measured_result="inhibition of SGLT1"
compound="O=c1c(-c2ccc(O)cc2)coc2cc(O[C@@H]3O[C@H](CO)[C@@H](O)[C@H](O)[C@H]3O)ccc12 [Daidzein-7-glucoside]" quantity_kind="SGLT1 inhibitory activity (in words)" measured_result="inhibition of SGLT1"
compound="O=c1c(O[C@@H]2O[C@H](CO)[C@@H](O)[C@H](O)[C@H]2O)c(-c2ccc(O)cc2)oc2cc(O)cc(O)c12 [Kaempferol 3-O-glucoside]" quantity_kind="SGLT1 inhibitory activity (in words)" measured_result="inhibition of SGLT1"
compound="O=c1cc(-c2ccc(O)cc2)oc2c([C@@H]3O[C@H](CO)[C@@H](O)[C@H](O)[C@H]3O)c(O)cc(O)c12 [Apigenin-8-C-glucoside]" quantity_kind="SGLT1 inhibitory activity (in words)" measured_result="inhibition of SGLT1"
compound="OC[C@H]1O[C@@H](Oc2cc3c(O)cc(O)cc3[o+]c2-c2ccc(O)cc2)[C@H](O)[C@@H](O)[C@@H]1O [Pelargonidin-3-glucoside]" quantity_kind="SGLT1 inhibitory activity (in words)" measured_result="inhibition of SGLT1"
compound="O=C1C[C@@H](c2ccc(O)c(O)c2)Oc2cc(O[C@@H]3O[C@H](CO)[C@@H](O)[C@H](O)[C@H]3O)cc(O)c21 [Eriodictiol-7-O-glucoside]" quantity_kind="SGLT1 inhibitory activity (in words)" measured_result="inhibition of SGLT1"
compound="COc1cc(-c2[o+]c3cc(O)cc(O)c3cc2O[C@@H]2O[C@H](CO)[C@@H](O)[C@H](O)[C@H]2O)cc(OC)c1O [Malvidin-3-O-glucoside]" quantity_kind="SGLT1 inhibitory activity (in words)" measured_result="inhibition of SGLT1"

###

Property: % Glucose Transport inhibition 5 mM; scope: individual compounds
# TARGET_OR_TEST_SYSTEM: SGLT1 (Homo sapiens, UniProt P13866)
# Construct: endogenous in cells; host or cells: differentiated Caco-2 cell monolayers (ATCC)
# Sequence (P13866 1-664): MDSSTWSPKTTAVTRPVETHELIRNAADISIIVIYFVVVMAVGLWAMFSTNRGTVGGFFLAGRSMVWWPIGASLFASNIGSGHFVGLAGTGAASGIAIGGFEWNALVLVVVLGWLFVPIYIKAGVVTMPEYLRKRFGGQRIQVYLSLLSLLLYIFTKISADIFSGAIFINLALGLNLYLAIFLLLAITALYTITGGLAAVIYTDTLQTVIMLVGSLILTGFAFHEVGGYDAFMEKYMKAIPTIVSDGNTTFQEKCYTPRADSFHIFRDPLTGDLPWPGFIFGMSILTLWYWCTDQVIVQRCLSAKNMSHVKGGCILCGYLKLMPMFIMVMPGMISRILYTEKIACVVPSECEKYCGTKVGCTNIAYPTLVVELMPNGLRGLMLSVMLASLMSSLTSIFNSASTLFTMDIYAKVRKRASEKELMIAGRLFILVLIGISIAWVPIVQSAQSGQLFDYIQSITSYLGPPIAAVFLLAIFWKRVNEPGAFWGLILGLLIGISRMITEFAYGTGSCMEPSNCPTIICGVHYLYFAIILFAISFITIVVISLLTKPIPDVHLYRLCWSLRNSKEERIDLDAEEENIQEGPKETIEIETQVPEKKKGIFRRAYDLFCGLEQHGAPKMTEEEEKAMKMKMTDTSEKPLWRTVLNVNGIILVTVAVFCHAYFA
# TEST_METHOD_NOTES: Glucose transport inhibitor cell screening assay, 5 mM D-glucose for 15 minutes (SGLT1 inhibition)
# Type: cell-based
# COND: differentiated Caco-2 monolayer; 5 mM D-glucose, 15 minutes; active at 300 uM
QUANTITY_KIND: % Glucose Transport inhibition 5 mM

compound="O=c1c(-c2ccc(O)cc2)coc2cc(O[C@@H]3O[C@H](CO)[C@@H](O)[C@H](O)[C@H]3O)ccc12 [Daidzein-7-glucoside]" measured_result=35.03%
compound="O=c1cc(-c2ccc(O)c(O)c2)oc2cc(O[C@@H]3O[C@H](CO)[C@@H](O)[C@H](O)[C@H]3O)cc(O)c12 [Luteolin-7-glucoside]" measured_result=44.09%
compound="O=c1c(O)c(-c2ccc(O)cc2)oc2cc(O[C@@H]3O[C@H](CO)[C@@H](O)[C@H](O)[C@H]3O)cc(O)c12 [Kaempferol 7-O-glucoside]" measured_result=43.89%
compound="O=c1cc(-c2ccc(O)cc2)oc2c([C@@H]3O[C@H](CO)[C@@H](O)[C@H](O)[C@H]3O)c(O)cc(O)c12 [Apigenin-8-C-glucoside]" measured_result=33.84%
